Test system: HBsAg
protocolNotes: HBsAg assay: inhibition of HBsAg in HepG2.2.15 cells (CLIA immunoassay of supernatant)
Format: cell-based, hepatitis B virus (HBV)
conditionDetails: Hepatitis B virus, HepG2.2.15, 144 h, read-out: sAg EC50, HepG2.2.15 cells; supernatant collected at day 6 after exposure; HBsAg chemiluminescence immunoassay
Rule: measured EC50 below 40 nM gets satisfied; anything equal to or greater than 40 nM gets not satisfied.

COCCCOc1cc2c(cc1OC)-c1[nH]c(=O)c(C(=O)O)c(O)c1C(C(C)C)C2 (centres unmarked) : satisfied
COCCCOc1cc2c(nc1OCC(F)F)-c1[nH]c(=O)c(C(=O)O)c(O)c1C(C(C)C)C2 (centres unmarked) : satisfied
COCCCOc1cc2c(cc1OC)-c1c(c(O)c(C(=O)O)c(=O)n1Cc1ccccc1)C(C(C)C)C2 (centres unmarked) : not satisfied
COCCCOc1cc2c(cc1OC)-c1[nH]c(=O)c(C(=O)O)cc1C1(CCCCC1)C2 : not satisfied
COCCCOc1cc2c(nc1OC)-c1nc(Cl)c(C(=O)O)c(Cl)c1C(C(C)(C)C)C2 (centres unmarked) : not satisfied
COCCCOc1cc2c(cc1OC)-c1[nH]c(=O)c(C(N)=O)c(O)c1C(C(C)C)C2 (centres unmarked) : satisfied
COCCCOc1cc2c(nc1NCCOC)-c1[nH]c(=O)c(C(=O)O)c(O)c1C(C(C)C)C2 (centres unmarked) : not satisfied

###

System: HBsAg
protocolNotes: HBsAg assay: inhibition of HBsAg in HepG2.2.15 cells (CLIA immunoassay of supernatant)
Assay type: cell-based, hepatitis B virus (HBV)
conditionDetails: Hepatitis B virus, HepG2.2.15, 144 h, read-out: sAg EC50, HepG2.2.15 cells; supernatant collected at day 6 after exposure; HBsAg chemiluminescence immunoassay
pEC50: −log10 of the molar value.
Lab note: anything with pEC50 at or over 8 counts as Met; the rest go in Not met.

COCCCOc1cc2c(nc1Cl)-c1[nH]c(=O)c(C(=O)O)c(O)c1C(C(C)C)C2 (stereo not shown) : Met
COCCCOc1cc2c(nc1C1CC1)-c1[nH]c(=O)c(C(=O)O)c(O)c1C(C(C)C)C2 (stereo not shown) : Met
COCCCOc1cc2c(nc1C1CCOCC1)-c1[nH]c(=O)c(C(=O)O)c(O)c1C(C(C)C)CO2 (stereo not shown) : Not met
COCCCOc1cc2c(nc1OC)-c1[nH]c(=O)c(C(=O)O)cc1C(C(C)(C)C)C2 (stereo not shown) : Met
COCCCOc1cc2c(nc1OC)-c1[nH]c(=O)c(C(=O)O)c(O)c1C(C(C)(C)C)C2 (stereo not shown) : Met
COCCCOc1cc2c(nc1C1CC1)-c1[nH]c(=O)c(C(=O)O)cc1C(C(C)C)C2 (stereo not shown) : Met
CNC(=O)c1c(O)c2c([nH]c1=O)-c1nc(OC)c(OCCCOC)cc1CC2C(C)(C)C (stereo not shown) : Not met
CCCc1nc2c(cc1OCCCOC)CC(C(C)C)c1c-2[nH]c(=O)c(C(=O)O)c1O (stereo not shown) : Met
COCCCOc1cc2c(cc1OC)-c1[nH]c(=O)c(C(=O)O)cc1C(C)(C(C)C)C2 (stereo not shown) : Not met
COCCCOc1cc2c(nc1OC)-c1[nH]c(=O)c(C(N)=O)c(O)c1C(C(C)(C)C)C2 (stereo not shown) : Met
COCCCOc1cc2c(cc1OC)-c1[nH]c(=O)c(C(=O)O)c(OCCO)c1C(C(C)C)C2 (stereo not shown) : Not met
CCOc1nc2c(cc1OCCCOC)CC(C(C)C)c1c-2[nH]c(=O)c(C(=O)O)c1O (stereo not shown) : Met
COCCCOc1cc2c(cc1OC)-c1[nH]c(=O)c(C(=O)O)c(OCCOC)c1C(C(C)C)C2 (stereo not shown) : Not met
COCCCOc1cc2c(nc1OC)-c1[nH]c(=O)c(C(=O)N(C)C)c(O)c1C(C(C)(C)C)C2 (stereo not shown) : Not met

Every entry's value here was drawn from patent US11702427B2.
